Reported EC50 values are given for each entry in this list.
Tested on: XF498
protocol: Cytotoxicity against human XF498 cells
Format: functional
test_settings: read-out: ED50 (the source's name)

# molecule, measurement_target, obs_value
rows = [
    ("CC(C)CCCCCCCCCCCC/C=C\\CC/C=C\\CCCC(=O)OC[C@@H](O)CO", "XF498", "> 30 µg/mL"),
    ("COC(=O)CCCCCCCCCCCCCCCCO", "XF498", "> 30 µg/mL"),
    ("CC(C)CCCCCCCCCCCCC/C=C\\CCCC(=O)OC[C@@H](O)CO", "XF498", "> 30 µg/mL"),
    ("C=CCCCCC(C)CCC/C=C\\C#CCC[C@H](OC)C(=O)OC[C@@H](O)CO (stereo not given in full)", "XF498", "42.5 µg/mL"),
]

QUERY: Entry under review: CC(C)CCCCCCCCCC(C)C(=O)OC[C@@H](O)COP(=O)([O-])CC[N+](C)(C)C (stereo not given in full) . Reported EC50?
RESULT: 24.1 µg/mL

----------
Test system: XF498
protocol: Cytotoxicity against human XF498 cells
Assay type: functional
test_settings: read-out: ED50 (the source's name)
measured_endpoint: EC50

# annotated cases, reported EC50 shown
# compound, measurement_target, EC50
records = [
    ("COC(=O)CCCCCCCCCCCCCCO", "XF498", "> 30 mg/L"),
    ("COc1cccc2c1C(=O)c1c(O)c3c(c(O)c1C2=O)C[C@@](O)(C(=O)CO)C[C@@H]3O[C@H]1C[C@H](N)[C@H](O)[C@H](C)O1", "XF498", "0.19 mg/L"),
    ("CC(C)CCCCCCCCCC(C)C(=O)OC[C@@H](O)CO (some centres undefined)", "XF498", "30.7 mg/L"),
]

QUERY: Entry under review: C=CCCCCC(C)CCC/C=C\C#CCC[C@H](OC)C(=O)OC[C@@H](O)COP(=O)([O-])CC[N+](C)(C)C (some centres undefined) . Reported EC50?
RESULT: 13.6 mg/L

----------
Tested on: HCT-15
protocol: Cytotoxicity against human HCT15 cells
Format: functional
test_settings: read-out: ED50 (the source's name)
EC50 less than 20 µg/mL is 1 (yes); EC50 greater than or equal to 20 µg/mL is 0 (no).

# compound, measurement_target, category
records = [
    ("CC(C)CCCCCCCCCC(C)C(=O)OC[C@@H](O)COP(=O)([O-])CC[N+](C)(C)C (some centres undefined) [STELLETTACHOLINE B]", "HCT-15", "0 (no)"),
]

QUERY: Consider CC(C)CCCCCCCCCC(C)C(=O)OC[C@@H](O)CO (some centres undefined) . Does its EC50 lie strictly below 20 µg/mL?
RESULT: 1 (yes)

QUERY: Consider CC(C)CCCCCCCCCCCCC/C=C\CCCC(=O)OC[C@@H](O)CO . Does its EC50 lie strictly below 20 µg/mL?
RESULT: 0 (no)

QUERY: Consider C=CCCCCC(C)CCC/C=C\C#CCC[C@H](OC)C(=O)OC[C@@H](O)CO (some centres undefined) . Does its EC50 lie strictly below 20 µg/mL?
RESULT: 0 (no)

QUERY: Consider C=CCCCCC(C)CCC/C=C\C#CCC[C@H](OC)C(=O)OC[C@@H](O)COP(=O)([O-])CC[N+](C)(C)C (some centres undefined) . Does its EC50 lie strictly below 20 µg/mL?
RESULT: 1 (yes)

QUERY: Consider COC(=O)CCCCCCCCCCCCCCCCO . Does its EC50 lie strictly below 20 µg/mL?
RESULT: 0 (no)

----------
System: SK-MEL-2
protocol: Cytotoxicity against human SK-MEL-2 cells
Assay type: functional
test_settings: read-out: ED50 (the source's name)
Reported EC50 values are given for each entry in this list.
Dear colleague, please return just the value in mg/L, with no unit written.

# compound, measured_endpoint, obs_value
data = [
    ("COc1cccc2c1C(=O)c1c(O)c3c(c(O)c1C2=O)C[C@@](O)(C(=O)CO)C[C@@H]3O[C@H]1C[C@H](N)[C@H](O)[C@H](C)O1 [DOXORUBICIN]", "EC50", 0.06),
    ("CC(C)CCCCCCCCCC(C)C(=O)OC[C@@H](O)COP(=O)([O-])CC[N+](C)(C)C (some centres undefined) [STELLETTACHOLINE B]", "EC50", 6.3),
    ("CC(C)CCCCCCCCCC(C)C(=O)OC[C@@H](O)CO (some centres undefined)", "EC50", 21.8),
]

Proceeding to the next compound to report its EC50.
QUERY: Entry under review: C=CCCCCC(C)CCC/C=C\C#CCC[C@H](OC)C(=O)OC[C@@H](O)COP(=O)([O-])CC[N+](C)(C)C (some centres undefined) . Reported EC50?
RESULT: 9.1

----------
Test system: HCT-15
protocol: Cytotoxicity against human HCT15 cells
Assay type: functional
test_settings: read-out: ED50 (the source's name)
measured_endpoint: EC50 (µg/mL)
Dear colleague, please return just the value in µg/mL, with no unit written.

# molecule, EC50 (µg/mL)
records = [
    ("COC(=O)CCCCCCCCCCCCCCO", 16.5),
]

Proceeding to the next molecule to report its EC50.
QUERY: Entry under review: COc1cccc2c1C(=O)c1c(O)c3c(c(O)c1C2=O)C[C@@](O)(C(=O)CO)C[C@@H]3O[C@H]1C[C@H](N)[C@H](O)[C@H](C)O1 [DOXORUBICIN] . Reported EC50?
RESULT: 0.29

----------
Test system: SK-MEL-2
protocol: Cytotoxicity against human SK-MEL-2 cells
Assay type: functional
test_settings: read-out: ED50 (the source's name)
measured_endpoint: EC50

# annotated cases, reported EC50 shown
# compound, EC50
records = [
    ("CC(C)CCCCCCCCCCCC/C=C\\CC/C=C\\CCCC(=O)OC[C@@H](O)CO", "> 30 µg/mL"),
    ("COC(=O)CCCCCCCCCCCCCCCCO", "> 30 µg/mL"),
    ("C=CCCCCC(C)CCC/C=C\\C#CCC[C@H](OC)C(=O)OC[C@@H](O)CO (stereo not given in full)", "> 30 µg/mL"),
]

QUERY: Entry under review: CC(C)CCCCCCCCCCCCC/C=C\CCCC(=O)OC[C@@H](O)CO . Reported EC50?
RESULT: > 30 µg/mL

QUERY: Entry under review: COC(=O)CCCCCCCCCCCCCCO . Reported EC50?
RESULT: > 30 µg/mL
